SYSTEM_NAME: recombinant human NPY Y2 receptors (Homo sapiens)
Construct: expressed in transfected cells; host or cells: CHO-C4 cells (membrane preparation)
Sequence (P49146 whole entry): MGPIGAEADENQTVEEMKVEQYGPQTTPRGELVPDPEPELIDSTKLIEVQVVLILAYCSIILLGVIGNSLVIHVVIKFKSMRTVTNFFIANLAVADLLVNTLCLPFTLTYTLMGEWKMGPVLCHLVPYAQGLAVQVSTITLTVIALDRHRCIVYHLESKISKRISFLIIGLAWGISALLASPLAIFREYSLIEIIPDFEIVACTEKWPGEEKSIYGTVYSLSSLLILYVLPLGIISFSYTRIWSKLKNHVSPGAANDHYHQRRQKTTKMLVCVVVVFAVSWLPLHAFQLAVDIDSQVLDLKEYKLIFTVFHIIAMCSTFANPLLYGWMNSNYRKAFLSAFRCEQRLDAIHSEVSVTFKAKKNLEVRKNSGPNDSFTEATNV
ASSAY: Scintillation proximity [35S]GTPγS binding assay (inhibition of 0.5 nM NPY-stimulated [35S]GTPγS binding)
Format: biochemical
CONDITION_SET: 10 μM compound, membranes from CHO-C4 cells expressing recombinant human NPY Y2 receptors
Returns one of met or not met; met when [%] inhibiton at 10 μM is >= 80%.

IN: Could you verify whether the entry CCCC1(c2ccc(F)cc2)N=C(C)N(CC(=O)c2ccc(N(C)C(=O)N(C)c3c(C)noc3C)cc2F)C1=O (racemic) shows [%] inhibiton at 10 μM of no less than 80%?
OUT: not met

IN: Could you verify whether the entry CCCC1(c2ccccc2)N=C(C)N(CC(=O)c2ccc(NC(=O)C(CC)CC)cc2)C1=O (single isomer, unassigned; (+)) shows [%] inhibiton at 10 μM of no less than 80%?
OUT: met

IN: Could you verify whether the entry CCCC1(c2ccc(F)cc2)N=C(C)N(CC(=O)c2ccc(NC(=O)Cc3c(C)noc3C)cc2F)C1=O (single isomer, unassigned; (+)) [Compound 36] shows [%] inhibiton at 10 μM of no less than 80%?
OUT: not met

IN: Could you verify whether the entry CCCC1(c2ccc(F)cc2)N=C(C)N(CC(=O)c2ccc(NC(=O)Cc3c(C)noc3C)cc2F)C1=O (racemic) [Compound 17] shows [%] inhibiton at 10 μM of no less than 80%?
OUT: met

IN: Could you verify whether the entry CCCC1(c2ccc(F)cc2)N=C(C)N(CC(=O)c2ccc(NC(=O)C3CCOC3)cc2F)C1=O (stereo not drawn) shows [%] inhibiton at 10 μM of no less than 80%?
OUT: not met
